Tested on: SNB-19 CNS
ASSAY EXPLANATION: NCI tumour cell line growth inhibition, 48 h; in the data active = GI50 below about 0.43 µM; inactive = the rest
The reply should be one of these categories: active, inactive

Solved entries (count: 5):
>>> print(df.to_string())
                                   compound  experimental_system  answer_label
0  COc1cc(/C=C/C(=O)c2nc3cc(F)ccc3nc2C)cc(OC)c1OC           SNB-19 CNS      inactive
1  CC1=C(C(=O)Nc2ccc3[nH]ncc3c2)C(c2ccc(F)cc2)N=C(c2ccc(C(F)(F)F)nc2)N1 (stereo not drawn)           SNB-19 CNS      inactive
2  O=C(O)CSc1cc(NS(=O)(=O)c2ccc(Br)cc2)c2ccccc2c1O           SNB-19 CNS      inactive
3  c1cc(OCCCCCOc2cccc(-c3nc4ccccc4[nH]3)c2)cc(-c2nc3ccccc3[nH]2)c1           SNB-19 CNS      inactive
4  O=C1NC(=O)C2C3C=CC(C12)C1C2C(=O)NC(=O)C2C31 (stereo not drawn)           SNB-19 CNS      inactive

Just curious, what result did `COc1cc(NC(=O)COc2ccccc2)c(C(N)=O)cc1OC` get here? inactive

Just curious, what result did `OCc1ccc(N2CCc3ccc(F)cc3C2)cc1Cl` get here? inactive

So what was the verdict on `CC(=O)O[C@H]([C@H](OC(C)=O)[C@H](C)OC(C)=O)[C@@H](/C=C/[C@H]1CC=CC(=O)O1)OC(C)=O` in this test? inactive

// return assay outcome for `Cn1cc(-c2ccc3c(c2)ncn3-c2cc(NS(=O)(=O)C3CC3)cc(-c3ccc(F)cc3F)c2)cn1` inactive

Please indicate how the test categorized O=C1C[C@@H]2OCC=C3C[N+]4([O-])CC[C@]56c7ccccc7N1[C@H]5[C@H]2[C@H]3C[C@@H]64 (stereo partly drawn) . inactive

What was the test verdict on `COc1cc2c(cc1OCCN1CCN(CCN3C(=O)c4cccc5cccc(c45)C3=O)CC1)N=C[C@@H]1CCCN1C2=O` ? inactive

Hi, sorry to bother you, what did the test record for O=S(=O)(Nc1ccccc1)c1ccc(C2CC3(Cl)C(Cl)=C(Cl)C2(Cl)C3(Cl)Cl)cc1 (stereo not drawn) ? inactive

Which outcome was entered for the compound `C/C(=C\c1csc(C)n1)[C@@H]1C[C@@H]2O[C@]2(C)CCC[C@H](C)[C@H](O)[C@@H](C)C(=O)C(C)(C)[C@@H](O)CC(=O)N1` in this test? active

Called result for `COc1cc(/C=C/c2cc(/C=C/c3ccc(O)c(OC)c3)n(C(=O)Nc3ccc(C)cc3)n2)ccc1O` inactive

Recorded test outcome, item `CN(C)c1ccc(/C=N/N=C(\C#N)[S][Sn]([Cl])([c]2ccccc2)[c]2ccccc2)cc1` inactive

Lab log entry: `CC(=O)O[C@H]1C[C@@H]2[C@@]3(C)CC[C@H]4C[C@@]4(C)[C@@H]3CC[C@@]2(C)C2=CCC3=C(COC3=O)[C@]21C` — outcome as called in the assay? inactive

Test call, this compound: `O=[N+]([O-])c1ccc(N/N=C\c2cc(Br)ccc2O)nc1` inactive

Hi team, can someone confirm the assay call for `Cc1ccc(-c2nc([P+](c3ccccc3)(c3ccccc3)c3ccccc3)c(N3CCOCC3)o2)cc1` ? active
